For each record, write down the corresponding Ratio IC50.
# METHOD_NOTES: Potency index, ratio of silibinin IC50 to compound IC50 for antiproliferative activity against human PC3 cells
# Type: functional, PC-3

Exercise: Give me measured Ratio IC50, please, for this compound: CCOc1cc(O)c2c(=O)c(OCC)c(-c3ccc4c(c3)OC(c3ccc(O)c(OC)c3)C(CO)O4)oc2c1 (centres undefined)
Key: 9

Exercise: Give me measured Ratio IC50, please, for this compound: CCCCOc1cc(O)c2c(c1)O[C@H](c1ccc3c(c1)OC(c1ccc(O)c(OC)c1)C(CO)O3)[C@@H](O)C2=O (some centres undefined)
Key: 14

Exercise: Give me measured Ratio IC50, please, for this compound: CCCCCOc1cc(O)c2c(c1)O[C@H](c1ccc3c(c1)OC(c1ccc(O)c(OC)c1)C(CO)O3)[C@@H](O)C2=O (some centres undefined)
Key: 12

Exercise: Give me measured Ratio IC50, please, for this compound: CCCCCOc1cc(O)c2c(=O)c(O)c(-c3ccc4c(c3)OC(c3ccc(O)c(OC)c3)C(CO)O4)oc2c1 (centres undefined)
Key: 12

---

# METHOD_NOTES: Potency index, ratio of silibinin IC50 to compound IC50 for antiproliferative activity against human PC3 cells
# Format: functional, PC-3
For each record, write down the corresponding Ratio IC50.
API note: the answer field is a bare number with no unit suffix.

Exercise: Give me measured Ratio IC50, please, for this compound: CCCCCCCOc1cc(O)c2c(c1)O[C@H](c1ccc3c(c1)OC(c1ccc(O)c(OC)c1)C(CO)O3)[C@@H](O)C2=O (some centres not stated)
Key: 7

Exercise: Give me measured Ratio IC50, please, for this compound: CCOc1cc(O)c2c(c1)O[C@H](c1ccc3c(c1)OC(c1ccc(O)c(OC)c1)C(CO)O3)[C@@H](O)C2=O (some centres not stated)
Key: 5

Exercise: Give me measured Ratio IC50, please, for this compound: CCCCOc1cc(O)c2c(=O)c(O)c(-c3ccc4c(c3)OC(c3ccc(O)c(OC)c3)C(CO)O4)oc2c1 (configuration not stated)
Key: 16

Exercise: Give me measured Ratio IC50, please, for this compound: CCCCCCOc1cc(O)c2c(c1)O[C@H](c1ccc3c(c1)OC(c1ccc(O)c(OC)c1)C(CO)O3)[C@@H](O)C2=O (some centres not stated)
Key: 12

Exercise: Give me measured Ratio IC50, please, for this compound: CCCOc1cc(O)c2c(c1)O[C@H](c1ccc3c(c1)OC(c1ccc(O)c(OC)c1)C(CO)O3)[C@@H](O)C2=O (some centres not stated)
Key: 4

Exercise: Give me measured Ratio IC50, please, for this compound: CCCCCCCOc1cc(O)c2c(=O)c(O)c(-c3ccc4c(c3)OC(c3ccc(O)c(OC)c3)C(CO)O4)oc2c1 (configuration not stated)
Key: 10

---

# Test system: LNCaP
# METHOD_NOTES: Antiproliferative activity against human LNCAP cells assessed as reduction in cell viability after 3 days by WST-1 cell proliferation assay
# Format: functional, cell-based
# CONDITIONS_USED: 72 h
For each record, write down the corresponding pIC50.
// field semantics: pIC50 = negative decimal log of concentration (mol/L)

Exercise: Give me measured pIC50, please, for this molecule: COc1cc(O)c2c(c1)O[C@H](c1ccc3c(c1)OC(c1ccc(O)c(OC)c1)C(CO)O3)[C@@H](O)C2=O (some centres undefined)
Key: 6.36

Exercise: Give me measured pIC50, please, for this molecule: CCCCCOc1cc(O)c2c(=O)c(O)c(-c3ccc4c(c3)OC(c3ccc(O)c(OC)c3)C(CO)O4)oc2c1 (centres undefined)
Key: 5.34

Exercise: Give me measured pIC50, please, for this molecule: COc1cc(O)c2c(=O)c(OC)c(-c3ccc4c(c3)OC(c3ccc(O)c(OC)c3)C(CO)O4)oc2c1 (centres undefined)
Key: 5.16

Exercise: Give me measured pIC50, please, for this molecule: CCCCOc1cc(O)c2c(c1)O[C@H](c1ccc3c(c1)OC(c1ccc(O)c(OC)c1)C(CO)O3)[C@@H](O)C2=O (some centres undefined)
Key: 5.60

Exercise: Give me measured pIC50, please, for this molecule: COc1cc(C2Oc3cc([C@H]4Oc5cc(OCc6ccccc6)cc(O)c5C(=O)[C@@H]4O)ccc3OC2CO)ccc1O (some centres undefined)
Key: 5.69

Exercise: Give me measured pIC50, please, for this molecule: CCOc1cc(O)c2c(c1)O[C@H](c1ccc3c(c1)OC(c1ccc(O)c(OC)c1)C(CO)O3)[C@@H](O)C2=O (some centres undefined)
Key: 6.46

Exercise: Give me measured pIC50, please, for this molecule: CCCOc1cc(O)c2c(=O)c(O)c(-c3ccc4c(c3)OC(c3ccc(O)c(OC)c3)C(CO)O4)oc2c1 (centres undefined)
Key: 5.36

Exercise: Give me measured pIC50, please, for this molecule: CCCCCCOc1cc(O)c2c(=O)c(O)c(-c3ccc4c(c3)OC(c3ccc(O)c(OC)c3)C(CO)O4)oc2c1 (centres undefined)
Key: 5.40

---

# METHOD_NOTES: Potency index, ratio of silibinin IC50 to compound IC50 for antiproliferative activity against human DU145 cells
# Assay type: functional, DU-145
For each record, write down the corresponding Ratio IC50.

Exercise: Give me measured Ratio IC50, please, for this compound: CCCCCCCOc1cc(O)c2c(=O)c(OCCCCCCC)c(-c3ccc4c(c3)OC(c3ccc(O)c(OC)c3)C(CO)O4)oc2c1 (stereo not given)
Key: <1

Exercise: Give me measured Ratio IC50, please, for this compound: CCCCCCOc1cc(O)c2c(=O)c(OCCCCCC)c(-c3ccc4c(c3)OC(c3ccc(O)c(OC)c3)C(CO)O4)oc2c1 (stereo not given)
Key: <1

Exercise: Give me measured Ratio IC50, please, for this compound: COc1cc(C2Oc3cc(-c4oc5cc(OCc6ccccc6)cc(O)c5c(=O)c4OCc4ccccc4)ccc3OC2CO)ccc1O (stereo not given)
Key: <1

Exercise: Give me measured Ratio IC50, please, for this compound: CCCCCCOc1cc(O)c2c(c1)O[C@H](c1ccc3c(c1)OC(c1ccc(O)c(OC)c1)C(CO)O3)[C@@H](O)C2=O (stereo not given in full)
Key: 8

Exercise: Give me measured Ratio IC50, please, for this compound: CCCCCOc1cc(O)c2c(c1)O[C@H](c1ccc3c(c1)OC(c1ccc(O)c(OC)c1)C(CO)O3)[C@@H](O)C2=O (stereo not given in full)
Key: 10

Exercise: Give me measured Ratio IC50, please, for this compound: COc1cc(O)c2c(c1)O[C@H](c1ccc3c(c1)OC(c1ccc(O)c(OC)c1)C(CO)O3)[C@@H](O)C2=O (stereo not given in full)
Key: 4

Exercise: Give me measured Ratio IC50, please, for this compound: CCCCCOc1cc(O)c2c(=O)c(OCCCCC)c(-c3ccc4c(c3)OC(c3ccc(O)c(OC)c3)C(CO)O4)oc2c1 (stereo not given)
Key: 3

Exercise: Give me measured Ratio IC50, please, for this compound: CCOc1cc(O)c2c(=O)c(O)c(-c3ccc4c(c3)OC(c3ccc(O)c(OC)c3)C(CO)O4)oc2c1 (stereo not given)
Key: 12

Exercise: Give me measured Ratio IC50, please, for this compound: COc1cc(O)c2c(=O)c(O)c(-c3ccc4c(c3)OC(c3ccc(O)c(OC)c3)C(CO)O4)oc2c1 (stereo not given)
Key: 12

Exercise: Give me measured Ratio IC50, please, for this compound: CCCCOc1cc(O)c2c(=O)c(O)c(-c3ccc4c(c3)OC(c3ccc(O)c(OC)c3)C(CO)O4)oc2c1 (stereo not given)
Key: 16
